# Tested on: mice
# MEASUREMENT_DESCRIPTION: Neuropharmacological assay (SmartCube), behavioral signature of compound-treated mice
# Type: in vivo
# TEST_CONDITIONS: i.p. 15 min before behavioral test, most efficacious dose(s) of 3 doses
OBSERVABLE: AX: anxiolytic (probability that behavioral signature matches class)

COMPOUND	REPORTED_RESULT
Clc1ccc2c(c1)CCO[C@H]2[C@H]1CCCN1	++ (5% ≤ ++ <25%)
c1ccc2c(c1)CCO[C@@H]2[C@H]1CCCN1 [Compound I-20, (R)-2-((S)-isochroman-1-yl)pyrrolidine]	++ (5% ≤ ++ <25%)
COc1cccc2c1[C@H]([C@H]1CCCN1)OCC2	++ (5% ≤ ++ <25%)

The measured values listed here are drawn from patent US10336732B2.
